Target: T1, IL13Rα2 Protein, Human, Recombinant, His Tag (human, UniProt Q14627 27-343)
T1 chain: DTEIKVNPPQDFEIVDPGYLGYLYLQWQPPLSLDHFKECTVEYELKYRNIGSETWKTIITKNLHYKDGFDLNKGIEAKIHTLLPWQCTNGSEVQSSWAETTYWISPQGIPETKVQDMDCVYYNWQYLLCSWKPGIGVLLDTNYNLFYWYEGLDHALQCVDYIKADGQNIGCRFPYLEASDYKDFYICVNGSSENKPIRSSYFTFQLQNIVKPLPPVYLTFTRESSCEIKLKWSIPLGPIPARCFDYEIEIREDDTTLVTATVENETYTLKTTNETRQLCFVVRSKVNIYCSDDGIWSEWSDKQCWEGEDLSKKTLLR
Test: SPR; kinetic
measured.quantity: pKd
The scale used: pKd is minus the common logarithm of the concentration in molar units.

pKd measured on C4 (protein) PGPVPPSTAVRELIEELVNITQNQKAPLCNGSMVWSINLTAGMYCAALESLINVSGCSAIEKTQRMLSGFCPHKVSAGQFSSLHVRDTRIEVAQFVKDLLNHLKELFTEGQFN = 9.41

pKd measured on C9 (protein) PGPVPPSTAHLELIEELINITQNQKAPLCNGSMVWSINLTAGMYCAALESLINVSGCSAIEKTQRMLSGFCPHKVSAGQFSSLHVKETRIEVAQFVKDLLNHLKTLFKEGQFN = 9.59

pKd measured on A8 (protein) PGPVPPSTAIRELIEELINITQNQKAPLCNGSMVWSINLTAGMYCAALESLINVSGCSAIEKTQRMLSGFCPHKVSAGQFSSLHVRSSRIEVAQFVKDLLHHLRTLFREGQFN = 9.58

pKd measured on B2 (protein) PGPVPPSTALRELIEELINITQNQKAPLCNGSMVWSINLTAGMYCAALESLINVSGCSAIEKTQRMLSGFCPHKVSAGQFSSLHVTGSKIEVAQFVKDLLYHLRALFREGQFN = 8.82

pKd measured on A7 (protein) PGPVPPSTAIRELIEELINITQNQKAPLCNGSMVWSINLTAGMYCAALESLINVSGCSAIEKTQRMLSGFCPHKVSAGQFSSLHVRGSKIEVAQFVKDLLHHLRALFREGQFN = 9.66

pKd measured on C3 (protein) PGPVPPSTAARELIEELVNITQNQKAPLCNGSMVWSINLTAGMYCAALESLINVSGCSAIEKTQRMLSGFCPHKVSAGQFSSLHVTGKRIEVAQFVKDLLNHLRALFKEGQFN = 9.42

pKd measured on A6 (protein) PGPVPPSTAIRELIEELLNITQNQKAPLCNGSMVWSINLTAGMYCAALESLINVSGCSAIEKTQRMLSGFCPHKVSAGQFSSLHVMKSKIEVAQFVKDLLHHLRALFREGQFN = 9.57

pKd measured on C12 (protein) PGPVPPSTAHRELIEELVNITQNQKAPLCNGSMVWSINLTAGMYCAALESLINVSGCSAIEKTQRMLSGFCPHKVSAGQFSSLHVMDSRIEVAQFVKDLLNHLRALFKEGQFN = 10.28
